Test: Drug concentration in 5XFAD mouse plasma at 600 ppm administered as rodent chow starting from 1.5 months and measured after 5 months
Type: ADME, cell-free
Details: route po, time 3.5 months
measure: concentration at 2555 h (µM)
Entry rule: numbers only, all in µM.

## Input Please report the recorded concentration at 2555 h for FC(F)(F)c1ccc(CNc2ccc(Cc3c[nH]c4ncc(Cl)cc34)cn2)cn1 .
## Output 158

###

Molecular target: Misshapen-like kinase 1 (Homo sapiens)
Sequence (Q8N4C8 whole entry): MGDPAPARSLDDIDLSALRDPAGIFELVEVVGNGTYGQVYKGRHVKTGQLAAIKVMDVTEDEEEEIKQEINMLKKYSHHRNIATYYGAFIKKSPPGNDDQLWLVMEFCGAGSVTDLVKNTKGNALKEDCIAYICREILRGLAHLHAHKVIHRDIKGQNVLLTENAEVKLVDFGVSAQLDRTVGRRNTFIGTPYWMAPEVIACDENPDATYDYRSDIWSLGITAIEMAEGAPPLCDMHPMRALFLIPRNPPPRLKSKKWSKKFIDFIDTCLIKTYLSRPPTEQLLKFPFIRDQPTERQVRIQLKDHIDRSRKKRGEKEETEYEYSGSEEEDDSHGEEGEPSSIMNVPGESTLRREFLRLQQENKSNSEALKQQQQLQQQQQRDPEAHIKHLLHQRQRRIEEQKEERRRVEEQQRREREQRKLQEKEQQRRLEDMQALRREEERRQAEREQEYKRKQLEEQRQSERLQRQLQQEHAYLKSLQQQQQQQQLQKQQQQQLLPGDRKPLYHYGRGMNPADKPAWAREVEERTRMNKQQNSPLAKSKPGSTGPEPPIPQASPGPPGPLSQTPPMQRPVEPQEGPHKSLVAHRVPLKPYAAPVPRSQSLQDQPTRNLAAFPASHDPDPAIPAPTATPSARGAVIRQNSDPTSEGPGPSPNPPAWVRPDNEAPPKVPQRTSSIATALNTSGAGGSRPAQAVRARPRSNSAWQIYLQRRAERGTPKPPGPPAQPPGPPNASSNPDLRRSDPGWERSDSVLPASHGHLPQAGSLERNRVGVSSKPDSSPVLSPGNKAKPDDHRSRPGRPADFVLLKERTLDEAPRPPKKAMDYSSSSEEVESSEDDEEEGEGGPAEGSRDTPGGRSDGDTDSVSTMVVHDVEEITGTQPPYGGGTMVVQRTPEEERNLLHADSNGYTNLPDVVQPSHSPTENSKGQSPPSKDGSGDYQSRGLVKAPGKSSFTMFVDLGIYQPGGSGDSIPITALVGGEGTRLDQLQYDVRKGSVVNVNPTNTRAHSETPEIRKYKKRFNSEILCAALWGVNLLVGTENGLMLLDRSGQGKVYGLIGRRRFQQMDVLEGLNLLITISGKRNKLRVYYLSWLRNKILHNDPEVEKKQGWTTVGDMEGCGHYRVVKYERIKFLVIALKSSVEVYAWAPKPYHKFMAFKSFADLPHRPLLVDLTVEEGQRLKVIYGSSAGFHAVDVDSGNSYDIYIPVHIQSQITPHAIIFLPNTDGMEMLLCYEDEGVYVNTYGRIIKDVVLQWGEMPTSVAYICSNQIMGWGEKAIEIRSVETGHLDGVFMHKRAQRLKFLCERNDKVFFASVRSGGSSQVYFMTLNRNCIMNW
measure: IC50

## Input Please report the recorded IC50 for COc1ncc(F)cc1CNc1ccc(Cc2c[nH]c3ncc(C)cc23)c(F)n1 .
## Output > 1000 nM

###

Target: Protein kinase C theta type (Homo sapiens)
Sequence (Q04759 whole entry): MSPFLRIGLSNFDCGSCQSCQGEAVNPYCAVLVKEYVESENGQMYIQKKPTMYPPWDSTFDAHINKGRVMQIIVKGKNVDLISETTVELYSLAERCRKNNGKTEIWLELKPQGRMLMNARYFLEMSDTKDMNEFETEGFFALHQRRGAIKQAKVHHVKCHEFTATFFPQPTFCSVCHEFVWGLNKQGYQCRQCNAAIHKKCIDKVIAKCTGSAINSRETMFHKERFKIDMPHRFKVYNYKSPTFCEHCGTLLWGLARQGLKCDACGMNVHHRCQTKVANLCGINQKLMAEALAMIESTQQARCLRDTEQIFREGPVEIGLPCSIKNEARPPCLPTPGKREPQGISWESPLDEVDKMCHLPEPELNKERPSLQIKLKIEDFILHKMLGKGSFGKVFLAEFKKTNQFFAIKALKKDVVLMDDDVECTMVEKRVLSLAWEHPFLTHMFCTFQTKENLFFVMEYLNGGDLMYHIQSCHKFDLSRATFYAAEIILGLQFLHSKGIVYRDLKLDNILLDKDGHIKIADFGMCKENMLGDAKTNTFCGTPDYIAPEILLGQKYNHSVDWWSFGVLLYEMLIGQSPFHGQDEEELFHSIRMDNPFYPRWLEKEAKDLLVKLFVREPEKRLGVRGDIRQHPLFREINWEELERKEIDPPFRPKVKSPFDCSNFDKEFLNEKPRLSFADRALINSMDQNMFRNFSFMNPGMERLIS
pIC50: −log10 of the molar value.
measure: pIC50

## Input Please report the recorded pIC50 for COc1ncc(F)cc1CNc1ccc(Cc2c[nH]c3ncc(C)cc23)c(F)n1 .
## Output < 6.00

###

Target: UniProtKB Q14289
Sequence (Q14289 whole entry): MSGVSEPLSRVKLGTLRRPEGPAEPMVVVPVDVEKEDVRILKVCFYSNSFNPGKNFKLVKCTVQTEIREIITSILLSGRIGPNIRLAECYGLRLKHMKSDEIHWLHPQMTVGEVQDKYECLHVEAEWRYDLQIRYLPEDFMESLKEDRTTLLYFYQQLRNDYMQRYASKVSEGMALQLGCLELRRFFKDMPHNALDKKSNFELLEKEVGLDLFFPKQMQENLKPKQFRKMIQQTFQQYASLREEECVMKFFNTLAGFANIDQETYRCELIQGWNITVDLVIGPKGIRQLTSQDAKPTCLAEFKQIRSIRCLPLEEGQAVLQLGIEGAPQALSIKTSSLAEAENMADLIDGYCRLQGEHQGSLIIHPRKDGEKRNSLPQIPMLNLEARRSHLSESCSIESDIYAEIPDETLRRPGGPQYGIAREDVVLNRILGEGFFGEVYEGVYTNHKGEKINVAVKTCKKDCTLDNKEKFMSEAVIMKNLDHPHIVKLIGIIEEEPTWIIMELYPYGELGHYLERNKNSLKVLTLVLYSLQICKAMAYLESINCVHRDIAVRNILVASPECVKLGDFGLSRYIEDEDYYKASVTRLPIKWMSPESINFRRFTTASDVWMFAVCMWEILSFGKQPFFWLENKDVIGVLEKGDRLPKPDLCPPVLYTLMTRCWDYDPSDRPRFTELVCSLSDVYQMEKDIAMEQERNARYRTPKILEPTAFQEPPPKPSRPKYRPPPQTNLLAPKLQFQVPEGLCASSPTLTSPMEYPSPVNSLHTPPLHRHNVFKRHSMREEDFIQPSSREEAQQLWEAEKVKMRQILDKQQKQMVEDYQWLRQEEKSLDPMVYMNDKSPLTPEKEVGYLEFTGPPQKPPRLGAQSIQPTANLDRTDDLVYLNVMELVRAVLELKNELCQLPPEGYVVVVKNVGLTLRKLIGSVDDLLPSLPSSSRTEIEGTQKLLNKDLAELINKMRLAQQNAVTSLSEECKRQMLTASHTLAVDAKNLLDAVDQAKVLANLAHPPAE
pIC50: −log10 of the molar value.
measure: pIC50

## Input Please report the recorded pIC50 for COc1ncc(F)cc1CNc1ccc(Cc2c[nH]c3ncc(C)cc23)c(F)n1 .
## Output < 6.00

###

Target: Tyrosine-protein kinase Lck (Homo sapiens, UniProt P06239)
Sequence (P06239 whole entry): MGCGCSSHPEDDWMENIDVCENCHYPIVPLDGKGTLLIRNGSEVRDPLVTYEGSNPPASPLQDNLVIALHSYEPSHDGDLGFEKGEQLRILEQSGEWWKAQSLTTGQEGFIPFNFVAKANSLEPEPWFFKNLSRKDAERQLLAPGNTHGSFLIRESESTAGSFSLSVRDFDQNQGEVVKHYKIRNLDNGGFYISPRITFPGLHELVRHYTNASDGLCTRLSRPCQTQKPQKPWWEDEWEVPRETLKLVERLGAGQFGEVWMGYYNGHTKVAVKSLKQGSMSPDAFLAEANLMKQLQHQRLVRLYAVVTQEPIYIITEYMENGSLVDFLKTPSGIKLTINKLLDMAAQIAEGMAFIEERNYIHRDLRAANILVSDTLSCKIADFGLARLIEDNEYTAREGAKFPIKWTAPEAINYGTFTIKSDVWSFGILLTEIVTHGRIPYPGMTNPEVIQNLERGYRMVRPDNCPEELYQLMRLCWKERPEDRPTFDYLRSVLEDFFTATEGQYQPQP
pIC50: −log10 of the molar value.
measure: pIC50

## Input Please report the recorded pIC50 for COc1ncc(F)cc1CNc1ccc(Cc2c[nH]c3ncc(C)cc23)c(F)n1 .
## Output < 6.00

###

Biological target: UniProt:P54753
Sequence (P54753 whole entry): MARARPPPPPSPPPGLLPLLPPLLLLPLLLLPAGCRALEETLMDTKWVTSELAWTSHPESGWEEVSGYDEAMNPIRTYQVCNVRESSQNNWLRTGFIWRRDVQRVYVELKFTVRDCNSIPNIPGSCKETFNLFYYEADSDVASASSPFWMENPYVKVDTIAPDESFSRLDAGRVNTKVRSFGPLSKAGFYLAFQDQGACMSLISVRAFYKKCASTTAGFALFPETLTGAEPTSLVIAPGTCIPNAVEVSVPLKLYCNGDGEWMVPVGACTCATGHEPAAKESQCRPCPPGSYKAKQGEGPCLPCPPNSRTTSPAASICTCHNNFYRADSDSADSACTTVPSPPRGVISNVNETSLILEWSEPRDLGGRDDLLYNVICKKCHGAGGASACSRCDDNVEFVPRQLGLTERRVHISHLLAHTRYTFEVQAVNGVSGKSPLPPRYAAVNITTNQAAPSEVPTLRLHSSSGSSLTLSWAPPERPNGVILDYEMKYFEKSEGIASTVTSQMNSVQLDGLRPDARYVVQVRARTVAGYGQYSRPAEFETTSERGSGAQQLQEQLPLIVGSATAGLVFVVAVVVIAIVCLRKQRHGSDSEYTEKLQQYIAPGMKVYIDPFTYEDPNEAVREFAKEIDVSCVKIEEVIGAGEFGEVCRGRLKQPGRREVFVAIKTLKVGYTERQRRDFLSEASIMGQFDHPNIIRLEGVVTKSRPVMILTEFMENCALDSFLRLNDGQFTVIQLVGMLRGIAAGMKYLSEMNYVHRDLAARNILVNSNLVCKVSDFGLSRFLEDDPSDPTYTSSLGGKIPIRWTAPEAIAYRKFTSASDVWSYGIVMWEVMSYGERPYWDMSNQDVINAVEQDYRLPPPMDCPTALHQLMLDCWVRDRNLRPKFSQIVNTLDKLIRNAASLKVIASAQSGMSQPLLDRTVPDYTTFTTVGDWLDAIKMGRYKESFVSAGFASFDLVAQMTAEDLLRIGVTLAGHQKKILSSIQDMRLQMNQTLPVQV
measure: IC50

## Input Find the measured IC50: item COc1ncc(F)cc1CNc1ccc(Cc2c[nH]c3ncc(C)cc23)c(F)n1 [PLX-5622] , target or system UniProt:P54753.
## Output > 1 µM
